# METHOD_DESCRIPTION: chemical recovery from spiked human plasma; higher = better extraction
# CONDITIONS_USED: pooled human plasma; extraction method: SPE only (HLB 96-well)
REPORTED_ENDPOINT: chemical recovery (%)
One number for each entry, in %.

Worked set:
>  <MOLECULE>
CNC(=O)c1ccccc1 [N-Methylbenzamide]

>  <chemical recovery [%]>
38.2

$$$$
>  <MOLECULE>
O=S1OC[C@@H]2[C@H](CO1)[C@@]1(Cl)C(Cl)=C(Cl)[C@]2(Cl)C1(Cl)Cl (stereo partly drawn) [alpha-Endosulfan]

>  <chemical recovery [%]>
0.649

$$$$
>  <MOLECULE>
Cc1cccc(C)c1NC(=O)CS(=O)(=O)O

>  <chemical recovery [%]>
5.38

$$$$

For every item below, please supply its chemical recovery.
1. CC(C)(C)c1cc(-n2nc3ccccc3n2)c(O)c(C(C)(C)C)c1
2. COCCN(C(=O)C(=O)O)c1c(C)cccc1C
3. Cc1ccccc1NC(=N)Nc1ccccc1C

1: 3.34; 2: 28.1; 3: 34.2

* * *

# METHOD_DESCRIPTION: chemical recovery into PDMS from spiked human plasma; higher = better extraction
# CONDITIONS_USED: pooled human plasma; extraction method: PES with PDMS; equilibration time (d): 6
REPORTED_ENDPOINT: chemical recovery into PDMS (%)
Answers are plain numbers, in %.

For orientation, consider the following solved cases.
>  <COMPOUND>
CC1(C)CCC(Cc2ccc(Cl)cc2)C1(O)Cn1cncn1 (stereo not given)

>  <REPORTED_ENDPOINT>
chemical recovery into PDMS

>  <QUANTITATIVE_READOUT>
41.9

$$$$
>  <COMPOUND>
O=P(OC(CCl)CCl)(OC(CCl)CCl)OC(CCl)CCl

>  <REPORTED_ENDPOINT>
chemical recovery into PDMS

>  <QUANTITATIVE_READOUT>
35.8

$$$$
>  <COMPOUND>
NC(=O)Nc1ccc(Cl)c(Cl)c1

>  <REPORTED_ENDPOINT>
chemical recovery into PDMS

>  <QUANTITATIVE_READOUT>
5.93

$$$$
>  <COMPOUND>
c1cc2cccc3c4cccc5cccc(c(c1)c23)c54

>  <REPORTED_ENDPOINT>
chemical recovery into PDMS

>  <QUANTITATIVE_READOUT>
79.5

$$$$
>  <COMPOUND>
CN(C)c1nc(=O)n(C2CCCCC2)c(=O)n1C

>  <REPORTED_ENDPOINT>
chemical recovery into PDMS

>  <QUANTITATIVE_READOUT>
44.5

$$$$

Report chemical recovery into PDMS for every entry below.
1. COCC(=O)N(c1c(C)cccc1C)C(C)C(=O)OC (stereo not given) [Metalaxyl]
2. CCNC(=O)[C@@H](C)OC(=O)Nc1ccccc1 [Carbetamide]

[36.9, 16.5]

Quick batch: chemical recovery into PDMS for everything below.
1. CCOP(=S)(OCC)SCn1nnc2ccccc2c1=O
2. COCN(COC)c1nc(N(COC)COC)nc(N(COC)COC)n1
3. Brc1ccc(Oc2cc(Br)c(Br)cc2Br)c(Br)c1

42.5
41.9
92.4

* * *

# METHOD_DESCRIPTION: chemical recovery by SPE of plasma after PDMS sampling; higher = better extraction
# CONDITIONS_USED: pooled human plasma; extraction method: HLB SPE of plasma after PES; equilibration time (d): 1
Assign chemical recovery by SPE of plasma to each entry below.
Numbers only, in %.

>  <COMPOUND>
c1cc2cccc3c4cccc5cccc(c(c1)c23)c54

>  <QUANTITATIVE_READOUT>
0.65

$$$$
>  <COMPOUND>
O=C(Nc1ccccc1-c1ccc(Cl)cc1)c1cccnc1Cl

>  <QUANTITATIVE_READOUT>
4.82

$$$$
>  <COMPOUND>
CC/C(=C(\c1ccccc1)c1ccc(OCCN(C)C)cc1)c1ccccc1

>  <QUANTITATIVE_READOUT>
0.427

$$$$
>  <COMPOUND>
CCCCCCCCCCCCCCN(C)C

>  <QUANTITATIVE_READOUT>
0.241

$$$$
>  <COMPOUND>
C[C@]12CCC(=O)C=C1[C@@H]1C[C@@H]1[C@H]1[C@@H]3[C@@H]4C[C@@H]4[C@@]4(CCC(=O)O4)[C@@]3(C)CC[C@@H]12

>  <QUANTITATIVE_READOUT>
3.88

$$$$

Give me chemical recovery by SPE of plasma for each of these compounds, listed below.
1. CCc1ccc(CCOc2ccc(CC3SC(=O)NC3=O)cc2)nc1 (configuration not stated)
2. Cc1cccc(C)c1N(Cn1cccn1)C(=O)C(=O)O
3. CC1CN(C2CCCCCCCCCCC2)CC(C)O1 (configuration not stated)
4. CC(=O)CC(c1ccccc1)c1c(O)c2ccccc2oc1=O (configuration not stated)

1. 45.8
2. 56.9
3. 0.166
4. 62.2

* * *

# METHOD_DESCRIPTION: chemical recovery by SPE of plasma after PDMS sampling; higher = better extraction
# CONDITIONS_USED: pooled human plasma; extraction method: HLB SPE of plasma after PES; equilibration time (d): 6
fulfilled means recorded chemical recovery by SPE of plasma is 10% or above; not fulfilled means it is below 10%.

Look over these answered cases.
>  <MOLECULE>
Cc1ccc2[nH]nnc2c1

>  <ASSIGNED_LABEL>
fulfilled

$$$$
>  <MOLECULE>
CC1(C)O[C@@H]2C[C@H]3[C@@H]4C[C@H](F)C5=CC(=O)C=C[C@]5(C)[C@H]4[C@@H](O)C[C@]3(C)[C@]2(C(=O)CO)O1 [Flunisolide]

>  <ASSIGNED_LABEL>
fulfilled

$$$$
>  <MOLECULE>
O=P1(NCCCl)OCCCN1CCCl (stereo not drawn) [Ifosfamide]

>  <ASSIGNED_LABEL>
fulfilled

$$$$
>  <MOLECULE>
CO/C=C(/C(=O)OC)c1ccccc1COc1cccc(C(F)(F)F)n1

>  <ASSIGNED_LABEL>
not fulfilled

$$$$
>  <MOLECULE>
CC1(C)CC(N)CC(C)(CN)C1 (stereo not drawn)

>  <ASSIGNED_LABEL>
not fulfilled

$$$$

Can Cc1cc(C2CC2)nc(Nc2ccccc2)n1 be said to have chemical recovery by SPE of plasma at or above 10%?
not fulfilled

hey, is chemical recovery by SPE of plasma for this one >= 10%? C1=Cc2cccc3cccc1c23
not fulfilled

Test whether the molecule Nc1ccc(-c2ccc(N)c(Cl)c2)cc1Cl records chemical recovery by SPE of plasma of 10% or higher.
fulfilled

Item CC(=O)N1CCN(c2ccc(OC[C@H]3CO[C@](Cn4ccnc4)(c4ccc(Cl)cc4Cl)O3)cc2)CC1 (racemic) with chemical recovery by SPE of plasma of 10% or above?
fulfilled

Check this molecule for chemical recovery by SPE of plasma at or above 10%: c1ccc2sc(N3CCOCC3)nc2c1
not fulfilled

* * *

# METHOD_DESCRIPTION: chemical recovery from spiked human plasma; higher = better extraction
# CONDITIONS_USED: pooled human plasma; extraction method: SPE only (HLB 96-well), PES comparison experiment
Field: chemical recovery. Provide a value for each of the compounds that follow.
Answers are plain numbers, in %.

// for each compound in input: emit chemical recovery
1. CCOC(=O)CC(O)(CC(=O)OCC)C(=O)OCC [Triethylcitrate]
2. CC(C)OC(=O)C(C)(C)Oc1ccc(C(=O)c2ccc(Cl)cc2)cc1 [Fenofibrate]
3. O=S(=O)(O)CCC(F)(F)C(F)(F)C(F)(F)C(F)(F)C(F)(F)C(F)(F)F
4. NC(=O)c1c(Cl)c(Cl)cc(C(=O)O)c1Cl
5. CC(=O)N1CCN(c2ccc(OC[C@H]3CO[C@](Cn4ccnc4)(c4ccc(Cl)cc4Cl)O3)cc2)CC1 (racemic)
6. CCCN(CC)CC1COC2(CCC(C(C)(C)C)CC2)O1 (centres undefined)

43.2
31.5
43.1
52.8
39.6
43.7

Look at each compound and report its chemical recovery.
1. O=P(OCCCl)(OCCCl)OCCCl [Tris(2-chloroethyl)phosphate]
2. Nc1cn[nH]c(=O)c1Cl
3. c1ccc2c(c1)[nH]c1ccncc12

52.3
6.79
31.2

* * *

# METHOD_DESCRIPTION: chemical recovery into PDMS from spiked human plasma; higher = better extraction
# CONDITIONS_USED: pooled human plasma; extraction method: PES with PDMS; equilibration time (d): 6
Kindly supply the reported chemical recovery into PDMS values for the records listed here.
Answers are plain numbers, in %.

Observe how each entry below is paired with its result.
>  <COMPOUND>
CCNc1nc(NC(C)(C)C)nc(SC)n1

>  <chemical recovery into PDMS (%)>
22.9

$$$$
>  <COMPOUND>
CN(C)C(=O)Nc1ccc(Cl)c(Cl)c1

>  <chemical recovery into PDMS (%)>
37

$$$$
>  <COMPOUND>
C[C@@H]1C[C@H]2[C@@H]3CCC4=CC(=O)C=C[C@]4(C)[C@@]3(Cl)[C@@H](O)C[C@]2(C)[C@@]1(OC(=O)c1ccco1)C(=O)CCl [Mometasone fuorate]

>  <chemical recovery into PDMS (%)>
32.6

$$$$
>  <COMPOUND>
Cc1c(C(C)C)c(=O)n(-c2ccccc2)n1C

>  <chemical recovery into PDMS (%)>
23

$$$$
>  <COMPOUND>
O=C(O)c1ccc(Cl)cc1Cl

>  <chemical recovery into PDMS (%)>
0.344

$$$$

Each compound below has a recorded value; state its chemical recovery into PDMS.
1. C[C@]12CCC(=O)C=C1[C@@H]1C[C@@H]1[C@H]1[C@@H]3[C@@H]4C[C@@H]4[C@@]4(CCC(=O)O4)[C@@]3(C)CC[C@@H]12
2. COC(=O)Nc1nc2ccccc2[nH]1

[44.9, 27.6]

Numbers sourced from the supplement of paper PMC10702517.
